Compiled from multiple publications: IC50 readings for Nuclear receptor subfamily 1 group I member 2 (Homo sapiens).
Target: Nuclear receptor subfamily 1 group I member 2 (Homo sapiens)
Sequence (O75469 whole entry): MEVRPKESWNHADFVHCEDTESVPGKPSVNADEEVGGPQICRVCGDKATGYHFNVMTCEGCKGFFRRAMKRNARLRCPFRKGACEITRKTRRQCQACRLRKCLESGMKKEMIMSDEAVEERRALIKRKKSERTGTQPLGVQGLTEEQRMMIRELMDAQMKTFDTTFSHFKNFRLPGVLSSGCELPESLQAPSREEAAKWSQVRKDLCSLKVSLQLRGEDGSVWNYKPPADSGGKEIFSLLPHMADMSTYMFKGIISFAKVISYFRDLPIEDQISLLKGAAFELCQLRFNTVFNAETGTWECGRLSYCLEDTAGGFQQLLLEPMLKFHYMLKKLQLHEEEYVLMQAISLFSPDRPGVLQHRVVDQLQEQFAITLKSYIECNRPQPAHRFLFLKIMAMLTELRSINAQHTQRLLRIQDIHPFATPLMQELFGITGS

Answered examples (10):
O=C(O)CC1COC2(CCN(c3ccc(-c4nc5cc(C(F)(F)F)ccc5[nH]4)cn3)CC2)C1 (racemic); > 30 µM
COc1cc(C2=CC3=NO[C@H](c4cc(F)c(F)c(F)c4)CN3CCC2)ccc1-n1cnc(C)c1; > 30 µM
C[C@@H](O[C@H]1CN2C(=O)C(N)C[C@H]2[C@@H]1c1ccc(F)cc1)c1cc(C(F)(F)F)cc(C(F)(F)F)c1 (stereo not given in full); > 25 µM
O=C(O)CC1CCC2(CCN(c3ccc(-c4nc5cc(C(F)(F)F)ccc5[nH]4)cn3)CC2)O1 (single isomer, unassigned; form 2); > 30 µM
O=C(O)[C@H]1CC[C@H](C(=O)N2CC[C@@]3(S(=O)(=O)c4ccc(F)cc4)c4ccc(C(F)(C(F)(F)F)C(F)(F)F)cc4CC[C@@H]23)CC1; > 40 µM
C[C@@H](O[C@H]1CN2C(=O)CC[C@H]2[C@@H]1c1ccc(F)cc1)c1cc(C(F)(F)F)cc(C(F)(F)F)c1; 4.8 µM
O=C(O)C12CCC(C(=O)N3CC[C@@]4(S(=O)(=O)c5ccc(F)cc5)c5ccc(C(F)(C(F)(F)F)C(F)(F)F)cc5CC[C@@H]34)(CC1)CC2; > 40 µM
O=C(O)[C@H]1CC[C@H](C(=O)N2CC[C@@]3(S(=O)(=O)c4ccccc4)c4ccc(C(F)(C(F)(F)F)C(F)(F)F)cc4CC[C@@H]23)CC1; > 40 µM
O=C(N1CC[C@@]2(S(=O)(=O)c3ccc(F)cc3)c3ccc(C(F)(C(F)(F)F)C(F)(F)F)cc3CC[C@@H]12)C1(O)CCS(=O)(=O)CC1; > 40 µM
O=C(O)[C@H]1CC[C@H](C(=O)N2CC[C@@]3(S(=O)(=O)c4ccc(F)cc4)c4ccc(C(F)(C(F)(F)F)C(F)(F)F)cc4NC[C@@H]23)CC1; > 40 µM

Need IC50, item CC(=O)c1ccc(N(CC(F)(F)F)S(=O)(=O)c2ccccc2)cc1 1.58 µM

Give its IC50 value. Item: O=C(O)CC1CCC2(CC1)CCN(c1ccc(-c3nc4cc(C(F)(F)F)ccc4[nH]3)cn1)CC2 > 30 µM

# query: IC50 of entry C[C@@H](O[C@H]1CN2C(=O)CC(N)[C@H]2[C@@H]1c1ccc(F)cc1)c1cc(C(F)(F)F)cc(C(F)(F)F)c1 (stereo not given in full) > 25 µM

Field request: IC50 | item: COc1cc(/C=C2\CCCN3C2=NO[C@H](c2cc(F)c(F)c(F)c2)[C@@H]3C)ccc1-n1cnc(C)c1 > 10 µM

Tell me the measured IC50 of O=S(=O)(c1ccccc1)N(CC(F)(F)F)c1ccc(C(O)(CC(F)(F)F)C(F)(F)F)cc1 (stereo not given) , please. 0.251 µM
